This collection of values is drawn from patent US7906507B2.

target: cloned human GLP-1 receptor (Homo sapiens); construct: expressed in transfected cells; host or cells: CHO or HEK-293 cells; assay: Functional cell-based assay: cAMP functional assay; settings: 0.5 h; percentage relative to maximal GLP-1-induced cAMP accumulation; na = not active in the assay; read-out: % activation
PARAMETER: Emax (%)

Study these solved cases before continuing.
>  <COMPOUND>
Cc1cccc(C(=O)N2Cc3cc4c(cc3C[C@H]2C(=O)N[C@@H](Cc2ccc(-c3ccc(C#N)cc3)cc2)C(=O)O)NC(=O)C(c2ccc(OCc3ccc(Cl)c(Cl)c3)cc2)O4)c1 (some centres unmarked)

>  <SCALE_UNIT>
%

>  <OBS_VALUE>
70.3

$$$$
>  <COMPOUND>
CSc1nc(CN2Cc3cc4c(cc3C[C@H]2C(=O)N[C@@H](Cc2ccc(-c3ccc(C#N)cc3)cc2)C(=O)O)NC(=O)C(c2ccc(OCc3ccc(Cl)c(Cl)c3)cc2)O4)ccc1C#N (some centres unmarked)

>  <SCALE_UNIT>
%

>  <OBS_VALUE>
22

$$$$

P = CN1C(=O)C(c2ccc(OCc3ccc(Cl)c(Cl)c3)cc2)Oc2cc3c(cc21)C[C@@H](C(=O)N[C@@H](Cc1ccc(-c2ccc(C#N)cc2)cc1)C(=O)O)N(C1CCCCC1)C3 (some centres unmarked)
Q = N#Cc1ccc(-c2ccc(C[C@H](NC(=O)[C@@H]3Cc4cc5c(cc4CN3Cc3nccs3)OC(c3ccc(OCc4ccc(Cl)c(Cl)c4)cc3)C(=O)N5)C(=O)O)cc2)cc1 (some centres unmarked)
R = N#Cc1ccc(-c2ccc(C[C@H](NC(=O)[C@@H]3Cc4cc5c(cc4CN3Cc3ccccc3)OC(c3ccc(OCc4cnc(Cl)c(Cl)c4)cc3)C(=O)N5)C(=O)O)cc2)cc1 (some centres unmarked)
query: Rank entries according to their Emax, from the largest number down. When ranking, write the labels in the order the request describes.
result: Q, R, P

====

target: cloned human GLP-1 receptor (Homo sapiens); construct: expressed in transfected cells; host or cells: CHO or HEK-293 cells; assay: Functional cell-based assay: cAMP functional assay; conditions: 0.5 h; percentage relative to maximal GLP-1-induced cAMP accumulation; na = not active in the assay; read-out: % activation
PARAMETER: Emax (%)

>  <MOLECULE>
N#Cc1ccc(-c2ccc(C[C@H](NC(=O)[C@@H]3Cc4cc5c(cc4CN3Cc3cccc(Br)n3)OC(c3ccc(OCc4ccc(Cl)c(Cl)c4)cc3)C(=O)N5)C(=O)O)cc2)cc1 (some centres unmarked) [Example 45]

>  <OBS_VALUE>
18

$$$$

A = O=C1Nc2cc3c(cc2OC1c1ccc(OCc2ccc(Cl)c(Cl)c2)cc1)CN(C(=O)c1ccccc1)[C@H](C(=O)N[C@@H](Cc1ccc(-c2ccncc2)cc1)C(=O)O)C3 (some centres unmarked) [Example 83]
B = N#Cc1ccc(-c2ccc(C[C@H](NC(=O)[C@@H]3Cc4cc5c(cc4CN3CC#Cc3ccccc3)OC(c3ccc(OCc4ccc(Cl)c(Cl)c4)cc3)C(=O)N5)C(=O)O)cc2)cc1 (some centres unmarked) [Example 7]
query: Select one. Lower Emax: A or B Identify your pick by its label.
result: A
(A: 18%, B: 35%)

a = CC(C)(C)OC(=O)N1Cc2cc3c(cc2C[C@H]1C(=O)N[C@@H](Cc1ccc(-c2ccc(C#N)cc2)cc1)C(=O)O)NC(=O)C(c1ccc(OCc2cnc(Cl)c(Cl)c2)cc1)O3 (some centres unmarked) [Example 63]
b = CN1C(=O)C(c2ccc(OCc3ccc(Cl)c(Cl)c3)cc2)Oc2cc3c(cc21)C[C@@H](C(=O)N[C@@H](Cc1ccc(-c2ccc(C#N)cc2)cc1)C(=O)O)N(C1CCC1)C3 (some centres unmarked) [Example 76]
query: Which record would sort first by descending Emax, a or b ? Identify your pick by its label.
result: a
(a: 23%, b: 8.12%)

====

molecular target: cloned human GLP-1 receptor (Homo sapiens); construct: expressed in transfected cells; host or cells: CHO or HEK-293 cells; assay: Functional cell-based assay: cAMP functional assay; conditions: 0.5 h; percentage relative to maximal GLP-1-induced cAMP accumulation; na = not active in the assay; read-out: % activation
PARAMETER: Emax (%)

>  <COMPOUND>
N#Cc1ccc(-c2ccc(C[C@H](NC(=O)[C@@H]3Cc4cc5c(cc4CN3C(=O)c3ccccn3)OC(c3ccc(OCc4ccc(Cl)c(Cl)c4)cc3)C(=O)N5)C(=O)O)cc2)cc1 (stereo partly drawn)

>  <PARAMETER>
Emax

>  <OBS_VALUE>
49

$$$$

1 = N#Cc1ccc(-c2ccc(C[C@H](NC(=O)[C@@H]3Cc4cc5c(cc4CN3Cc3nccs3)OC(c3ccc(OCc4cccc(Cl)c4)cc3)C(=O)N5)C(=O)O)cc2)cc1 (stereo partly drawn)
2 = N#Cc1ccc(-c2ccc(C[C@H](NC(=O)[C@@H]3Cc4cc5c(cc4CN3C(=O)c3c(F)cc(F)cc3F)OC(c3ccc(OCc4ccc(Cl)c(Cl)c4)cc3)C(=O)N5)C(=O)O)cc2)cc1 (stereo partly drawn)
query: Which record would sort first by descending Emax, 1 or 2 ? Identify your pick by its label.
result: 1
(1: 55%, 2: 13%)

====

biological target: cloned human GLP-1 receptor (Homo sapiens, UniProt P43220); construct: expressed in transfected cells; host or cells: CHO or HEK-293 cells; test: Functional cell-based assay: cAMP functional assay; details: 0.5 h; percentage relative to maximal GLP-1-induced cAMP accumulation; na = not active in the assay; read-out: % activation
Sequence (P43220 24-463): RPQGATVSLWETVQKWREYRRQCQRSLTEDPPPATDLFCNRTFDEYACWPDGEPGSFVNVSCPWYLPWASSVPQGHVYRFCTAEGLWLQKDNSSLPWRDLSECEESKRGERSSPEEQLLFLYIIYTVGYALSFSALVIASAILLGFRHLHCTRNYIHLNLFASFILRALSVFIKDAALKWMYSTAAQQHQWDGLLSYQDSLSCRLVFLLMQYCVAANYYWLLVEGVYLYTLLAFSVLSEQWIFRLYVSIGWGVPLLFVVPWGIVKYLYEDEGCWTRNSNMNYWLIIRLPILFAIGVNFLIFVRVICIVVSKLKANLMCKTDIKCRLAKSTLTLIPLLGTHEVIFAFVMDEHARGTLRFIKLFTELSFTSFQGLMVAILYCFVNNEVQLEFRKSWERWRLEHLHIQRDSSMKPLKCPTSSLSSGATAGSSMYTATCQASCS
PARAMETER: Emax (%)

>  <COMPOUND>
Cc1cccc(CN2Cc3cc4c(cc3C[C@H]2C(=O)N[C@@H](Cc2ccc(-c3ccc(C#N)cc3)cc2)C(=O)O)NC(=O)C(c2ccc(OCc3ccc(Cl)c(Cl)c3)cc2)O4)n1 (stereo partly shown)

>  <PARAMETER>
Emax

>  <OBS_VALUE>
25

$$$$
>  <COMPOUND>
N#Cc1ccc(-c2ccc(C[C@H](NC(=O)[C@@H]3Cc4cc5c(cc4CN3C(=O)c3cccnc3)OC(c3ccc(OCc4ccc(Cl)c(Cl)c4)cc3)C(=O)N5)C(=O)O)cc2)cc1 (stereo partly shown)

>  <PARAMETER>
Emax

>  <OBS_VALUE>
20

$$$$
>  <COMPOUND>
N#Cc1ccc(-c2ccc(C[C@H](NC(=O)[C@@H]3Cc4cc5c(cc4CN3S(=O)(=O)c3ccccc3[N+](=O)[O-])OC(c3ccc(OCc4ccc(Cl)c(Cl)c4)cc3)C(=O)N5)C(=O)O)cc2)cc1 (stereo partly shown)

>  <PARAMETER>
Emax

>  <OBS_VALUE>
30

$$$$
>  <COMPOUND>
N#Cc1ccc(-c2ccc(C[C@H](NC(=O)[C@@H]3Cc4cc5c(cc4CN3C(=O)C3CCCCC3)OC(c3ccc(OCc4ccc(Cl)c(Cl)c4)cc3)C(=O)N5)C(=O)O)cc2)cc1 (stereo partly shown)

>  <PARAMETER>
Emax

>  <OBS_VALUE>
12

$$$$
>  <COMPOUND>
N#Cc1ccc(-c2ccc(C[C@H](NC(=O)[C@@H]3Cc4cc5c(cc4CN3C(=O)c3cccs3)OC(c3ccc(OCc4cnc(Cl)c(Cl)c4)cc3)C(=O)N5)C(=O)O)cc2)cc1 (stereo partly shown)

>  <PARAMETER>
Emax

>  <OBS_VALUE>
21

$$$$

I = N#Cc1ccc(-c2ccc(C[C@H](NC(=O)[C@@H]3Cc4cc5c(cc4CN3CC#Cc3ncccn3)OC(c3ccc(OCc4ccc(Cl)c(Cl)c4)cc3)C(=O)N5)C(=O)O)cc2)cc1 (stereo partly shown)
II = N#Cc1ccc(-c2ccc(C[C@H](NC(=O)[C@@H]3Cc4cc5c(cc4CN3C(=O)c3ccccc3)OC(c3ccc(OCc4ccc(Cl)c(C(F)(F)F)c4)cc3)C(=O)N5)C(=O)O)cc2)cc1 (stereo partly shown)
query: Select one. Lower Emax: I or II Identify your pick by its label.
result: II

A = Cn1ccnc1CN1Cc2cc3c(cc2C[C@H]1C(=O)N[C@@H](Cc1ccc(-c2ccc(C#N)cc2)cc1)C(=O)O)NC(=O)C(c1ccc(OCc2ccc(Cl)c(Cl)c2)cc1)O3 (stereo partly shown)
B = N#Cc1ccc(-c2ccc(C[C@H](NC(=O)[C@@H]3Cc4cc5c(cc4CN3Cc3ncc[nH]3)OC(c3ccc(OCc4ccc(Cl)c(Cl)c4)cc3)C(=O)N5)C(=O)O)cc2)cc1 (stereo partly shown)
query: Which record would sort first by descending Emax, A or B ? Identify your pick by its label.
result: A

P = N#Cc1ccc(-c2ccc(C[C@H](NC(=O)[C@@H]3Cc4cc5c(cc4CN3C(=O)OC3CCC(O)CC3)OC(c3ccc(OCc4ccc(Cl)c(Cl)c4)cc3)C(=O)N5)C(=O)O)cc2)cc1 (stereo partly shown)
Q = N#Cc1ccc(-c2ccc(C[C@H](NC(=O)[C@@H]3Cc4cc5c(cc4CN3CC#Cc3ccsc3)OC(c3ccc(OCc4ccc(Cl)c(Cl)c4)cc3)C(=O)N5)C(=O)O)cc2)cc1 (stereo partly shown)
R = Cc1noc(C)c1S(=O)(=O)N1Cc2cc3c(cc2C[C@H]1C(=O)N[C@@H](Cc1ccc(-c2ccc(C#N)cc2)cc1)C(=O)O)N(C)C(=O)C(c1ccc(OCc2ccc(Cl)c(Cl)c2)cc1)O3 (stereo partly shown)
S = N#Cc1ccc(-c2ccc(C[C@H](NC(=O)[C@@H]3Cc4cc5c(cc4CN3C(=O)c3ccc(F)cc3)OC(c3ccc(OCc4ccc(Cl)c(Cl)c4)cc3)C(=O)N5)C(=O)O)cc2)cc1 (stereo partly shown)
query: Rank entries according to their Emax, from the largest number down. When ranking, write the labels in the order the request describes.
result: S, Q, P, R

I = CC(C)COC(=O)N1Cc2cc3c(cc2C[C@H]1C(=O)N[C@@H](Cc1ccc(-c2ccc(C#N)cc2)cc1)C(=O)O)NC(=O)C(c1ccc(OCc2ccc(Cl)c(Cl)c2)cc1)O3 (stereo partly shown)
II = N#Cc1ccc(-c2ccc(C[C@H](NC(=O)[C@@H]3Cc4cc5c(cc4CN3C(=O)[C@@H]3CCCO3)OC(c3ccc(OCc4ccc(Cl)c(Cl)c4)cc3)C(=O)N5)C(=O)O)cc2)cc1 (stereo partly shown)
query: Which record would sort first by descending Emax, I or II ? Identify your pick by its label.
result: I
(I: 54%, II: 18%)
